# system: T1, full-length human GIPR with an N-terminal FLAG tag (human, UniProt P48546 22-466)
# T1 sequence (looked up): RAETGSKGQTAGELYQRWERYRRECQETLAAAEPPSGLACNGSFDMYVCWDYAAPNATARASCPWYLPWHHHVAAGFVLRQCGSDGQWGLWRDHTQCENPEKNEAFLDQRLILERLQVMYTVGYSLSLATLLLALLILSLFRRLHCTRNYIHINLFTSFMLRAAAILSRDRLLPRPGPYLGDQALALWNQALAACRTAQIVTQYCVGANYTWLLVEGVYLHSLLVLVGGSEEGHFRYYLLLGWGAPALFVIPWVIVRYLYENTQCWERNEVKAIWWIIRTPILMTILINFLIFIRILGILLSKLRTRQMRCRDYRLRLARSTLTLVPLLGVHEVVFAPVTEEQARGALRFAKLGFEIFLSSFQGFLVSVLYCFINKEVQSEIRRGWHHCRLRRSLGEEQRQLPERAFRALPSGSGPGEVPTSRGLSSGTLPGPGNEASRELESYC
# test_name: cell-based or functional assay
Starred links: 1 amine or outer side, 2 acyl side, 3 side chain; linkers in the order of their positions; H or OH if unused. Non-standard residues stand in square brackets, D forms with d. Groups on a side chain read outwards from the residue. No end group written: not given here. *: point of attachment. C18 diacid = O=C(O)CCCCCCCCCCCCCCCCC(=O)*; C17 diacid = O=C(O)CCCCCCCCCCCCCCCC(=O)*; γGlu = O=C(O)[C@H](CCC(=O)[*:2])N[*:1]; NMeY = CN[C@@H](Cc1ccc(O)cc1)C(=O)O; AEEA = NCCOCCOCC(=O)O; Aib = CC(C)(N)C(=O)O
reported_metric: Human GIPR cAMP EC50, HEK293T (pM)
A number alone suffices; assume pM.

Please review the following examples before continuing.
binder	units	Human GIPR cAMP EC50, HEK293T
YXEGTFISDYSIALDRXAQXDFVNWLLAQSPG (N-methyl Tyr 1; Aib at 2,20; Lys(G5-C18 diacid) at 17; C-terminal OH) [Compound No. 113]	pM	0.3
Y[Aib]EGTFISDYSIALDKIAQQK([AEEA-AEEA-γGlu-γGlu-C17 diacid])FVEWLLAQRG-OH [Compound No. 142]	pM	0.4
[NMeY][Aib]EGTFISDYSI[Aib]LDR[Aib]AQ[Aib]K([AEEA-AEEA-γGlu-γGlu-C17 diacid])FVNWLLAQRPSSGAPPPS-NH2 [Compound No. 13]	pM	0.4

Q: Endpoint output: Human GIPR cAMP EC50, HEK293T of YXEGTFISDYSIAXDRXAQXNFVNWLLAQRPSSGAPPPS (N-methyl Tyr 1; Aib at 2,17,20; Lys(G5-C18 diacid) at 14; C-terminal OH) [Compound No. 44] . Value?
Ans: 1.7

Q: Also [NMeY][Aib]EGTFISDYSIALDR[Aib]AQ[Aib]K([AEEA-AEEA-γGlu-γGlu-C18 diacid])FVNWLLAQRG-OH [Compound No. 37] , if possible.
Ans: 0.5
